- Test system: A549
- ASSAY REMARKS: NCI tumour cell line growth inhibition, 48 h
Where a name gives a salt, the structure may show the parent alone. The source made the active and inactive calls. No stated cut-off is given here; in the data, active = GI50 up to about 1.1 µM and inactive = higher.
A correct response names exactly one class from y (active), n (inactive)

Enquiry: Returns: the outcome recorded for O=C1CCCC[C@H]1[C@H]1CCC[C@@H]([C@H]2CCCCC2=O)C1=O in this assay.
Return: n

Enquiry: Record: OC1(C(O)(c2ccc(-c3ccccc3)cc2)c2ccc(-c3ccccc3)cc2)CCCCC1
Return: n

Enquiry: Record: Cc1nc2ccccc2n1CCc1nc2ccccc2[nH]1
Return: n

Enquiry: Record: COc1ccc(N(CC(=O)O)S(=O)(=O)c2ccccc2)cc1
Return: n

Enquiry: Record: O=C(O)Cc1ccc(Nc2nc3ccccc3nc2C(=O)O)cc1
Return: n

Enquiry: Record: CC(CN1CCN(CC(C)Nc2ccnc3cc(Cl)ccc23)CC1)Nc1ccnc2cc(Cl)ccc12 (stereo not given)
Return: n

Enquiry: Record: N#C/C(=C\c1cccc(O)c1)C(N)=O
Return: n

Enquiry: Record: CCOC(=O)CCc1c(C)c2c(OC)cc(OC)cc2oc1=O
Return: n

Enquiry: Record: O=S(=O)(N/N=C1\CC2CCC1C2)c1ccccc1 (stereo not given)
Return: n

Enquiry: Record: CCOC(=O)CNC(=O)C(CSCc1ccc(Br)cc1)NC(=O)CCC(N)C(=O)OCC (stereo not given)
Return: n

Enquiry: Record: CC12CC3CC(C1)CC(N=[N+]=[N-])(C3)C2
Return: n

Enquiry: Record: O=[N+]([O-])c1ccc(Sc2c3ccccc3nc3ccccc23)cn1
Return: n

Enquiry: Record: N#CC(C(=O)O)C(c1c(Cl)cccc1Cl)C(C#N)C(=O)O (stereo not given)
Return: n

Enquiry: Record: COc1ccc2nc3c([N+](=O)[O-])ccc(NCCN(C)C)c3c(N)c2c1
Return: n

Enquiry: Record: C/C(=N/NC(=S)Nc1ccc([N+](=O)[O-])cc1)c1cccc(/C(C)=N\NC(=S)Nc2ccc([N+](=O)[O-])cc2)n1
Return: y

Enquiry: Record: O=C1/C(=C\c2cccc(Oc3ccccc3)c2)SC(c2ccccc2)N1c1cc(Cl)ccc1Cl (stereo not given)
Return: n

Enquiry: Record: C=CCN1C(=O)CC1N(CC=C)S(=O)(=O)c1ccc(C)cc1 (stereo not given)
Return: n

Enquiry: Record: COC(=O)[C@H](Cc1ccccc1)NP(=O)(O)OCC1C=CC(n2cc(C)c(=O)[nH]c2=O)O1 (stereo not given in full)
Return: n

Enquiry: Record: COC(=O)C1=C(C)N2CCOC2CC1c1ccccc1 (stereo not given)
Return: n

Enquiry: Record: Oc1cc(-c2ccccn2)nc2cc(F)ccc12
Return: n

Enquiry: Record: COC(=O)CCC1(CCC(=O)OC)CCCCCCC(CCC(=O)OC)(CCC(=O)OC)C(=O)C1=O
Return: n

Enquiry: Record: CCOP(C)(=O)C(Cc1c[nH]c2ccccc12)C(=O)O (stereo not given)
Return: n

Enquiry: Record: Cc1ccc(S(=O)(=O)CNC(=S)CCCC(=S)NCS(=O)(=O)c2ccc(C)cc2)cc1
Return: n

Enquiry: Record: Cc1cc(N(CCC#N)CCC#N)ccc1/C=C(\NC(=O)/C=C/c1ccccc1)C(=O)Nc1ccccc1Cl
Return: n

Enquiry: Record: CCC1(C)C=Cc2c(cc(OC)c3c(=O)c4ccccc4n(C)c23)O1 (stereo not given)
Return: n

Enquiry: Record: CCCCOC(=O)CC(CC(=O)OCCCC)(OC(C)=O)C(=O)OCCCC [ACETYLTRIBUTYL CITRATE]
Return: n

Enquiry: Record: CCCCOC(C)(C)/C=C/C(O)[C@](C)(O)[C@H]1[C@H](O)C[C@@]2(C)[C@@H]3CCc4c(cc(OC5OC(CO)C(O)C(O)C5O)c(O)c4C)C3(C)C(=O)C[C@]12C (stereo not given in full)
Return: n

Enquiry: Record: COC(=O)CCC(NC(=S)N/N=C(\C)c1nccs1)C(=O)OC (stereo not given)
Return: n

Enquiry: Record: Cc1cc(C)n(-c2nc3ccccc3c(=O)n2-c2ccccc2)n1
Return: n

Enquiry: Record: CC(NNC(=O)c1cc[n+]([BH2-]C#N)cc1)c1ccc(Cl)cc1Cl (stereo not given)
Return: n

Enquiry: Record: CC(=O)OCc1ccc(-c2nc(C#N)c(N)o2)o1
Return: n

Enquiry: Record: CC1c2cc(c3c(c2O)CN([C@@H](C)C2CCCCC2)CO3)C(C)c2cc(c3c(c2O)CN([C@@H](C)C2CCCCC2)CO3)C(C)c2cc(c3c(c2O)CN([C@@H](C)C2CCCCC2)CO3)C(C)c2cc1c1c(c2O)CN([C@@H](C)C2CCCCC2)CO1 (stereo not given in full)
Return: n

Enquiry: Record: C/C(Cl)=N\OC(=O)Nc1ccc(C)cc1
Return: n

Enquiry: Record: CCCCC(=O)/C=c1/cc(C)[nH]c2cccc3cnn1c32
Return: n

Enquiry: Record: COc1ccc(C(=O)C(C(=O)C(=O)NC2C3CC4CC(C3)CC2C4)c2ccc(OC)cc2)cc1 (stereo not given)
Return: n

Enquiry: Record: O=C(c1ccccc1)c1c(CC(O)c2ccccc2)n(C(=O)c2ccccc2)c2ccccc12 (stereo not given)
Return: n

Enquiry: Record: Clc1cc2nsnc2c(Cl)n1
Return: n

Enquiry: Record: N=C(N)N/N=C\c1c(-c2cccc([N+](=O)[O-])c2)nc2sc(Cl)cn12
Return: n

Enquiry: Record: C[C@]12CCC3c4ccc(O)cc4CC[C@H]3C1CC(=O)NC2=O (stereo not given in full)
Return: n

Enquiry: Record: C/C(=N\NC(=O)CC(=O)Nc1ccc(Cl)cc1)c1cc2ccccc2oc1=O
Return: n
